# System: PC-3 prostate
# Test details: NCI-60 one-dose screen, 48 h (100 = growth as untreated, 0 = no growth, -100 = all killed)
# Setup conditions: 10 µM unless noted
# Protocol: Growth inhibition of the PC-3 human tumor cell line is measured as a screen for anti-cancer activity. Cells are grown in 96 well plates and exposed to the test compound for 48 hours. Compounds are tested at a single concentration, which is 10^-5 M for most compounds. The reported endpoint is percent growth (GI% or GIPRCNT), where numbers from 0 - 100% represent growth inhibition, and numbers from -100% - 0 represent cell death. For example, a value of 40 represents 60% growth inhibition. […]
This is part of a sample that, as a whole, favours compounds with a hit. Of some 83,000 tested, about 20% had one in any assay.
Quantity measured: growth (%)
Write it as a number; the unit % goes unstated.

Given the entry CC1NC(C)c2ccc3ccccc3c2O1 (stereo not drawn) , report its measured growth.
93.3

Same read-out for CCOCCC(=O)O ?
91.7

Repeat for the following compound: CC1CC(O)CC(C)(C)C1.CC1CC(O)CC(C)(C)C1.CC1CC(O)CC(C)(C)C1.CC1CC(O)CC(C)(C)C1.[Ti] (stereo not drawn)
90.4

====

# Tested on: HT29 colon
# Test details: NCI-60 one-dose screen, 48 h (100 = growth as untreated, 0 = no growth, -100 = all killed)
# Setup conditions: 10 µM unless noted
Compounds without any hit were thinned out: in the full panel of roughly 83,000, 20% have a hit. Activity calls are given as the source filed them. How the source made its calls: active means growth percent below 10; inactive means the rest.
Measured growth of individual entries

Record excerpt, results attached:
[[record]]
compound = "CC1NC(C)c2ccc3ccccc3c2O1 (stereo not drawn)"
measurement = "99.8% (inactive)"

[[record]]
compound = "CCOP(=O)(OCC)/C(C#N)=C/c1c(C)[nH]c2ccccc12"
measurement = "106% (inactive)"

[[record]]
compound = "CC(=O)/C(N=Nc1ccc(S(=O)(=O)c2ccc(N=N/C(C(C)=O)=C(/C)O)cc2)cc1)=C(\\C)O"
measurement = "102% (inactive)"

[[record]]
compound = "COc1cc(Cl)ccc1C"
measurement = "27.1% (inactive)"

[[record]]
compound = "CCOC(=O)CN1CCC(C(=O)OCC)CC1"
measurement = "104% (inactive)"


Let's switch to this compound now.
Which measured growth value corresponds to N#CC(=S)Nc1ccc(Cl)c(Cl)c1 ?
12.5% (inactive)

====

Form field: growth (one value per entry).
# Tested on: IGROV1 ovarian
# Test details: NCI-60 one-dose screen, 48 h (100 = growth as untreated, 0 = no growth, -100 = all killed)
# Setup conditions: 10 µM unless noted
About 83,000 compounds went through this panel and 20% of them were active in at least one assay; those are over-represented in the sample as a whole.
I only need the number, in %, no unit after it.

Worked examples, 5 compounds total:
[[record]]
compound = "C/C(=C\\c1ccccc1)C(O)C(=O)c1nc2ccc([N+](=O)[O-])cc2[nH]c1=O (centres undefined)"
assay_system = "IGROV1 ovarian"
quantity_measured = "growth"
measurement = 102

[[record]]
compound = "CC1NC(C)c2ccc3ccccc3c2O1 (centres undefined)"
assay_system = "IGROV1 ovarian"
quantity_measured = "growth"
measurement = 115

[[record]]
compound = "CCOC(=O)c1ccncc1"
assay_system = "IGROV1 ovarian"
quantity_measured = "growth"
measurement = 111

[[record]]
compound = "O=C1C=CC(=O)N1Cc1ccco1"
assay_system = "IGROV1 ovarian"
quantity_measured = "growth"
measurement = 69.7

[[record]]
compound = "CC1OS(=O)OC1C (centres undefined)"
assay_system = "IGROV1 ovarian"
quantity_measured = "growth"
measurement = 105


I'm curious: which growth was measured for S=c1nn[nH]n1C1CCCCC1 tested on IGROV1 ovarian?
104

Now consider CC(C)=NOC(C)C(=O)O (centres undefined) .
135

Also check COC(=O)C(Cc1cn(C(C)=O)c2ccccc12)P(=O)(OC)OC (centres undefined)
113

Again, but for CCOc1ccc(/C=C\C(=O)O)cc1
101

Also Cc1cc(=NO)cc(C)n1O , if possible.
114

Repeat for the following compound: CS(=O)(=O)c1nsc(N)n1
101

# iterate: Cc1ccc([N+](=O)[O-])cc1Br
113

How about CC(=O)c1cc2ccccc2o1 ?
110

Next entry: CCN(CC)C(CC(=O)c1ccccc1)C(=O)c1ccccc1 (centres undefined)
110
